- tested-system: Gal(b1-4)GlcNAc(b1-3)Gal(b1-4)GlcNAc(b1-2)Man(a1-3)[Gal(b1-4)GlcNAc(b1-3)Gal(b1-4)GlcNAc(b1-2)Man(a1-6)]Man(b1-4)GlcNAc(b1-4)GlcNAc
- assay-notes: glycan array binding signal (z-score within array); higher = stronger binding
- experimental-setup: glycan notation: IUPAC condensed, linker removed
The entries come from a sample that favours the strongest signals as a whole.
Reported glycan array binding signal (z-score) by item:

See these solved cases before continuing.
>>> experimental_value("Langerin K299A/K313A (Homo sapiens), Q9UJ71 (protein) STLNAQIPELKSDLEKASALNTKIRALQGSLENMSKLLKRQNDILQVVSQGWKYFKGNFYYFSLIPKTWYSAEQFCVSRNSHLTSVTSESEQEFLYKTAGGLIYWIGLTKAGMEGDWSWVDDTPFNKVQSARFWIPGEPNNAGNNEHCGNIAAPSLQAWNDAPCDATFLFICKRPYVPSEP")
3.14
>>> experimental_value("Cohesin-mDCIR (Macaca mulatta) (protein) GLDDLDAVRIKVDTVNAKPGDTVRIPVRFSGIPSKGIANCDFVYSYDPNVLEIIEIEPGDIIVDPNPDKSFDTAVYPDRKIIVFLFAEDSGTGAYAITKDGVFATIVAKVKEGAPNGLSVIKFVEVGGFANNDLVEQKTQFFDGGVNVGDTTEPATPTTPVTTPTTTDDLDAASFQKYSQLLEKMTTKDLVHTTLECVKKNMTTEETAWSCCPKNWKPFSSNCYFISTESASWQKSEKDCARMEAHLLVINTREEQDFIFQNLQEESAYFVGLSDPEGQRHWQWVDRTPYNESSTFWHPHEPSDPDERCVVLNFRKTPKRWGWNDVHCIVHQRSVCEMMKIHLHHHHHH")
4.39
>>> experimental_value("Thrombomodulin (Mus musculus) (protein) ALAKLQPTGSQCVEHECFALFQGPATFLDASQACQRLQGHLMTVRSSVAADVISLLLSQSSMDLGPWIGLQLPQGCDDPVHLGPLRGFQWVTGDNHTSYSRWARPNDQTAPLCGPLCVTVSTATEAAPGEPAWEEKPCETETQGFLCEFYFTASC")
1.25

Here is the next item to consider.
Looking for the measured glycan array binding signal (z-score) of MPA (Maclura pomifera), P18674 (protein) GVTFDDGAYTGIREINFEYNSETAIGGLRVTYDLNGMPFVAEDHKSFITGFKPVKISLEFPSEYIVEVSGYVGKVEGYTVIRSLTFKTNKQTYGPYGVTNGTPFSLPIENGLIVGFKGSIGYWLDYFSIYLSL , can you help? 3.21

Values from the supplement of paper PMC8728848
